- testName: PK protocol, intravenous administration
- Assay type: in vivo, male Sprague Dawley rats
- experimentalConditions: male, Sprague Dawley, plasma, dose 1 mg/kg, rat
- Experimental: Pharmacokinetic parameters were determined in male Sprague Dawley rats (Charles River, UK, 250-350 g; or Vital River Laboratory Animal Technology Co Ltd, Beijing, China, 7-9 weeks old). Animals were individually housed during the study and maintained under a 12 h light/dark cycle. Animals had free access to food and water. For intravenous administration, compounds were formulated as a solution in water or DMSO:PBS [10:90] in 2 mL/kg dosing volume and administered via tail vein. […]
Where a name gives a salt, the structure may show the parent alone.
resultType: half-life
Answer format: number, then unit.

Consider the reported half-life for these compounds:
1. CC(C)n1ccc(S(=O)(=O)NC(=O)Nc2c(-c3ccncc3)cc(F)c3c2CCC3)n1 [Example 205]; 2.6 h
2. CC(C)c1cc(F)cc(-c2ccnc(C#N)c2)c1NC(=O)NS(=O)(=O)c1cn(C(C)C)cn1 [Example 54]; 1.6 h
3. COc1cc(-c2cc(F)cc(C(C)C)c2NC(=O)NS(=O)(=O)c2cc(CN(C)C)n(C(C)C)n2)ccn1 [Example 37]; 0.3 h
4. COc1cc(-c2cc(F)cc(C(C)C)c2NC(=O)NS(=O)(=O)c2cncc(N(C)C)n2)ccn1 [Example 103]; 2.2 h
5. COc1cc(-c2ccc3c(c2NC(=O)NS(=O)(=O)c2ccn(C(C)C)n2)CCO3)ccn1 [Example 224, sodium salt]; 3.2 h
6. CC(C)n1ccc(S(=O)(=O)NC(=O)Nc2c(-c3ccnnc3)ccc3c2CCC3)n1 [Example 223, sodium salt]; 0.9 h

Okay, now this compound:
Requested read-out: half-life. Entry: COc1cc(-c2ccc3c(c2NC(=O)NS(=O)(=O)c2cncc(N(C)C)n2)CCC3)ccn1 [Example 104]
1.2 h
